# Test system: 855422-203-R-J1-PDC spheroids with HUVEC/MSC, viability
# PROTOCOL DESCRIPTION: Anticancer human tumor 855422-203-R-J1-PDC patient-derived bladder carcinoma cell line growth inhibition [PI3K]; active = viability on the fitted dose curve at most 10% of control; inactive = the rest
# PARTICULARS: second compound 0.316 µM; first compound 0.316 µM
Labels: active, inactive

>  <COMPOUND>
CC(C)NCC(C(=O)N1CCN(c2ncnc3c2C(C)CC3O)CC1)c1ccc(Cl)cc1 (stereo unspecified) + COc1c(OCCCN2CCOCC2)ccc2c3n(c(=NC(=O)c4cnc(N)nc4)nc12)CCN3

>  <TARGET OF ASSAY>
855422-203-R-J1-PDC spheroids with HUVEC/MSC, viability

>  <ASSIGNED LABEL>
active

$$$$
>  <COMPOUND>
CNC(=O)c1ccc(N2C(=S)N(c3ccc(C#N)c(C(F)(F)F)c3)C(=O)C2(C)C)cc1F + CC(Nc1ncnc2nc[nH]c12)c1cc2cccc(Cl)c2c(=O)n1-c1ccccc1

>  <TARGET OF ASSAY>
855422-203-R-J1-PDC spheroids with HUVEC/MSC, viability

>  <ASSIGNED LABEL>
inactive

$$$$
>  <COMPOUND>
Cn1nccc1Nc1nccc(-c2ccn(C(CO)c3ccc(Cl)c(F)c3)c(=O)c2)n1 (stereo unspecified) + CC(Nc1ccc2c(c1)OCCn1cc(N3C(=O)OCC3C(F)F)nc1-2)C(N)=O

>  <TARGET OF ASSAY>
855422-203-R-J1-PDC spheroids with HUVEC/MSC, viability

>  <ASSIGNED LABEL>
inactive

$$$$
>  <COMPOUND>
CCN1CCN(Cc2ccc(Nc3ncc(F)c(-c4cc(F)c5nc(C)n(C(C)C)c5c4)n3)nc2)CC1 + Cc1nc(NC(=O)N2CCCC2C(N)=O)sc1-c1ccnc(C(C)(C)C(F)(F)F)c1

>  <TARGET OF ASSAY>
855422-203-R-J1-PDC spheroids with HUVEC/MSC, viability

>  <ASSIGNED LABEL>
inactive

$$$$
>  <COMPOUND>
CC(Cn1ccc(-c2ccc(C#N)c(Cl)c2)n1)NC(=O)c1cc(C(C)O)[nH]n1 (stereo unspecified) + CC(Nc1ccc2c(c1)OCCn1cc(N3C(=O)OCC3C(F)F)nc1-2)C(N)=O

>  <TARGET OF ASSAY>
855422-203-R-J1-PDC spheroids with HUVEC/MSC, viability

>  <ASSIGNED LABEL>
inactive

$$$$
>  <COMPOUND>
CCCS(=O)(=O)Nc1ccc(F)c(C(=O)c2c[nH]c3ncc(-c4ccc(Cl)cc4)cc23)c1F + CC(Nc1ccc2c(c1)OCCn1cc(N3C(=O)OCC3C(F)F)nc1-2)C(N)=O

>  <TARGET OF ASSAY>
855422-203-R-J1-PDC spheroids with HUVEC/MSC, viability

>  <ASSIGNED LABEL>
inactive

$$$$
>  <COMPOUND>
CC1(C)CCC(Nc2ncc(C(F)(F)F)c(-c3c[nH]c4c(P(C)(C)=O)c(C#N)ccc34)n2)CN1 (stereo unspecified) + CC(Nc1ncnc2nc[nH]c12)c1cc2cccc(Cl)c2c(=O)n1-c1ccccc1

>  <TARGET OF ASSAY>
855422-203-R-J1-PDC spheroids with HUVEC/MSC, viability

>  <ASSIGNED LABEL>
inactive

$$$$
>  <COMPOUND>
CCN1CCN(Cc2ccc(Nc3ncc(F)c(-c4cc(F)c5nc(C)n(C(C)C)c5c4)n3)nc2)CC1 + CC(Nc1ncnc2nc[nH]c12)c1cc2cccc(Cl)c2c(=O)n1-c1ccccc1

>  <TARGET OF ASSAY>
855422-203-R-J1-PDC spheroids with HUVEC/MSC, viability

>  <ASSIGNED LABEL>
inactive

$$$$
>  <COMPOUND>
Cn1nccc1Nc1nccc(-c2ccn(C(CO)c3ccc(Cl)c(F)c3)c(=O)c2)n1 (stereo unspecified) + CC(Nc1ncnc2nc[nH]c12)c1cc2cccc(Cl)c2c(=O)n1-c1ccccc1

>  <TARGET OF ASSAY>
855422-203-R-J1-PDC spheroids with HUVEC/MSC, viability

>  <ASSIGNED LABEL>
inactive

$$$$
>  <COMPOUND>
CC(C)NCC(C(=O)N1CCN(c2ncnc3c2C(C)CC3O)CC1)c1ccc(Cl)cc1 (stereo unspecified) + CC(Nc1ncnc2nc[nH]c12)c1cc2cccc(Cl)c2c(=O)n1-c1ccccc1

>  <TARGET OF ASSAY>
855422-203-R-J1-PDC spheroids with HUVEC/MSC, viability

>  <ASSIGNED LABEL>
inactive

$$$$
>  <COMPOUND>
CC1(C)CCC(Nc2ncc(C(F)(F)F)c(-c3c[nH]c4c(P(C)(C)=O)c(C#N)ccc34)n2)CN1 (stereo unspecified) + CC(Nc1ccc2c(c1)OCCn1cc(N3C(=O)OCC3C(F)F)nc1-2)C(N)=O

>  <TARGET OF ASSAY>
855422-203-R-J1-PDC spheroids with HUVEC/MSC, viability

>  <ASSIGNED LABEL>
inactive

$$$$

====

# Tested on: 855422-203-R-J1-PDC spheroids with HUVEC/MSC, viability
# PROTOCOL DESCRIPTION: Anticancer human tumor 855422-203-R-J1-PDC cell line growth inhibition [PI3K];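 also: agents incubated with spheroids for one week before read-out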
# PARTICULARS: curve of first compound; second compound 0.316 µM
pIC50: −log10 of the molar value.

>  <COMPOUND>
CC1(C)CCC(CN2CCN(c3ccc(C(=O)NS(=O)(=O)c4ccc(NCC5CCOCC5)c([N+](=O)[O-])c4)c(Oc4cnc5[nH]ccc5c4)c3)CC2)=C(c2ccc(Cl)cc2)C1 + CC(Nc1ccc2c(c1)OCCn1cc(N3C(=O)OCC3C(F)F)nc1-2)C(N)=O

>  <VALUE OPERATOR>
=

>  <pIC50>
5.71

$$$$
>  <COMPOUND>
CC(C)NCC(C(=O)N1CCN(c2ncnc3c2C(C)CC3O)CC1)c1ccc(Cl)cc1 (stereo not given) + CC(Nc1ccc2c(c1)OCCn1cc(N3C(=O)OCC3C(F)F)nc1-2)C(N)=O

>  <VALUE OPERATOR>
>

>  <pIC50>
7.50

$$$$
>  <COMPOUND>
Cn1ncnc1[C@H]1c2n[nH]c(=O)c3cc(F)cc(c23)N[C@@H]1c1ccc(F)cc1 + Cc1nc(NC(=O)N2CCCC2C(N)=O)sc1-c1ccnc(C(C)(C)C(F)(F)F)c1

>  <VALUE OPERATOR>
<

>  <pIC50>
7.00

$$$$
>  <COMPOUND>
C#Cc1c(F)ccc2cc(O)cc(-c3ncc4c(N5CC6CCC(C5)N6)nc(OCC56CCCN5CC(F)C6)nc4c3F)c12 (stereo not given) + CC(Nc1ccc2c(c1)OCCn1cc(N3C(=O)OCC3C(F)F)nc1-2)C(N)=O

>  <VALUE OPERATOR>
=

>  <pIC50>
5.44

$$$$
>  <COMPOUND>
C[C@@H](NC(=O)c1ncnc(N)c1Cl)c1ncc(C(=O)Nc2cc(C(F)(F)F)c(Cl)cn2)s1 + CC(Nc1ccc2c(c1)OCCn1cc(N3C(=O)OCC3C(F)F)nc1-2)C(N)=O

>  <VALUE OPERATOR>
>

>  <pIC50>
7.50

$$$$

====

# System: 855422-203-R-J1-PDC spheroids with HUVEC/MSC, viability
# PROTOCOL DESCRIPTION: Anticancer human tumor 855422-203-R-J1-PDC cell line growth inhibition [PI3K];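 also: agents incubated with spheroids for one week before read-out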;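 as to viability, T/C: 100% = DMSO vehicle-treated control wells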
# PARTICULARS: second compound 0.316 µM; first compound 10 µM; stronger effect = lower value
The entries below come with measured viability, T/C values attached.
PROPERTY MEASURED: viability, T/C

>  <MOLECULE>
CC(C)NCC(C(=O)N1CCN(c2ncnc3c2C(C)CC3O)CC1)c1ccc(Cl)cc1 (stereo unspecified) + CC(Nc1ncnc2nc[nH]c12)c1cc2cccc(Cl)c2c(=O)n1-c1ccccc1

>  <PROPERTY MEASURED>
viability, T/C

>  <RESULT>
18.8%

$$$$
>  <MOLECULE>
CCCS(=O)(=O)Nc1ccc(F)c(C(=O)c2c[nH]c3ncc(-c4ccc(Cl)cc4)cc23)c1F + COc1c(OCCCN2CCOCC2)ccc2c3n(c(=NC(=O)c4cnc(N)nc4)nc12)CCN3

>  <PROPERTY MEASURED>
viability, T/C

>  <RESULT>
0.86%

$$$$
>  <MOLECULE>
CC(C)NCC(C(=O)N1CCN(c2ncnc3c2C(C)CC3O)CC1)c1ccc(Cl)cc1 (stereo unspecified) + CC(Nc1ccc2c(c1)OCCn1cc(N3C(=O)OCC3C(F)F)nc1-2)C(N)=O

>  <PROPERTY MEASURED>
viability, T/C

>  <RESULT>
11.9%

$$$$
>  <MOLECULE>
Cn1ncc(Cl)c1-c1cc(C(=O)NC(CN)Cc2cccc(F)c2)sc1Cl (stereo unspecified) + CC(Nc1ncnc2nc[nH]c12)c1cc2cccc(Cl)c2c(=O)n1-c1ccccc1

>  <PROPERTY MEASURED>
viability, T/C

>  <RESULT>
6.18%

$$$$
>  <MOLECULE>
Cn1nccc1Nc1nccc(-c2ccn(C(CO)c3ccc(Cl)c(F)c3)c(=O)c2)n1 (stereo unspecified) + CC(Nc1ccc2c(c1)OCCn1cc(N3C(=O)OCC3C(F)F)nc1-2)C(N)=O

>  <PROPERTY MEASURED>
viability, T/C

>  <RESULT>
10.6%

$$$$
>  <MOLECULE>
C#Cc1c(F)ccc2cc(O)cc(-c3ncc4c(N5CC6CCC(C5)N6)nc(OCC56CCCN5CC(F)C6)nc4c3F)c12 (stereo unspecified) + CC(Nc1ccc2c(c1)OCCn1cc(N3C(=O)OCC3C(F)F)nc1-2)C(N)=O

>  <PROPERTY MEASURED>
viability, T/C

>  <RESULT>
29.1%

$$$$
>  <MOLECULE>
CC1(C)CCC(CN2CCN(c3ccc(C(=O)NS(=O)(=O)c4ccc(NCC5CCOCC5)c([N+](=O)[O-])c4)c(Oc4cnc5[nH]ccc5c4)c3)CC2)=C(c2ccc(Cl)cc2)C1 + CC(Nc1ncnc2nc[nH]c12)c1cc2cccc(Cl)c2c(=O)n1-c1ccccc1

>  <PROPERTY MEASURED>
viability, T/C

>  <RESULT>
2.05%

$$$$
>  <MOLECULE>
CCCS(=O)(=O)Nc1ccc(F)c(C(=O)c2c[nH]c3ncc(-c4ccc(Cl)cc4)cc23)c1F + CC(Nc1ncnc2nc[nH]c12)c1cc2cccc(Cl)c2c(=O)n1-c1ccccc1

>  <PROPERTY MEASURED>
viability, T/C

>  <RESULT>
0.12%

$$$$
>  <MOLECULE>
C=CC(=O)N1CCN(c2nc(=O)n(-c3c(C)ccnc3C(C)C)c3nc(-c4c(O)cccc4F)c(F)cc23)C(C)C1 (stereo unspecified) + CC(Nc1ccc2c(c1)OCCn1cc(N3C(=O)OCC3C(F)F)nc1-2)C(N)=O

>  <PROPERTY MEASURED>
viability, T/C

>  <RESULT>
68.8%

$$$$
>  <MOLECULE>
C[C@@H](NC(=O)c1ncnc(N)c1Cl)c1ncc(C(=O)Nc2cc(C(F)(F)F)c(Cl)cn2)s1 + CC(Nc1ccc2c(c1)OCCn1cc(N3C(=O)OCC3C(F)F)nc1-2)C(N)=O

>  <PROPERTY MEASURED>
viability, T/C

>  <RESULT>
23.9%

$$$$
>  <MOLECULE>
C[C@@H](NC(=O)c1ncnc(N)c1Cl)c1ncc(C(=O)Nc2cc(C(F)(F)F)c(Cl)cn2)s1 + Cc1nc(NC(=O)N2CCCC2C(N)=O)sc1-c1ccnc(C(C)(C)C(F)(F)F)c1

>  <PROPERTY MEASURED>
viability, T/C

>  <RESULT>
60.9%

$$$$
